Tested on: Escherichia coli TOP10;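 further: peptides expressed intracellularly from a pBAD plasmid library in pooled LB shake-flask culture, induced with 0.3% L-arabinose, DNA abundance read by NGS, three biological replicates, DESeq2 with apeglm shrinkage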
protocol-description: shrunken log2 fold change of peptide-encoding DNA abundance (4.5 h post-induction vs induction); higher = less antimicrobial activity (less host growth inhibition)
settings: time post-induction: 4.5 h; library: site-saturation at positions 5, 18, 19, 20
The threshold is inclusive: shrunken log2 fold change of exactly -0.05 counts as yes (1); values below receive no (0).

| chain | class-name |
| --- | --- |
| RRIRYRPPRLPRPRPRPTDPPRP | no (0) |
| RRIRDRPPRLPRPRPRPTRCPRP | yes (1) |
| RRIRWRPPRLPRPRPRPLTIPRP | no (0) |
| RRIRKRPPRLPRPRPRPRKKPRP | yes (1) |
| RRIRCRPPRLPRPRPRPFCFPRP | no (0) |
| RRIRGRPPRLPRPRPRPESGPRP | yes (1) |
| RRIRGRPPRLPRPRPRPTWSPRP | yes (1) |
| RRIRGRPPRLPRPRPRPLDPPRP | yes (1) |
| RRIRGRPPRLPRPRPRPYLMPRP | no (0) |
| RRIRSRPPRLPRPRPRPMLWPRP | yes (1) |
| RRIRYRPPRLPRPRPRPEWMPRP | no (0) |
| RRIRERPPRLPRPRPRPRTIPRP | no (0) |
| RRIRCRPPRLPRPRPRPECCPRP | yes (1) |
| RRIRVRPPRLPRPRPRPNSNPRP | no (0) |
| RRIRDRPPRLPRPRPRPGSHPRP | yes (1) |
| RRIRARPPRLPRPRPRPDVEPRP | yes (1) |
| RRIRLRPPRLPRPRPRPNTSPRP | no (0) |
